- Test method notes: modulators of MEP2-GFP levels in yeast, confirmation, S. cerevisiae, flow cytometry GFP, cherry picks (AID 2272);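 note: ratio of well signal to plate DMSO mean so 100% equals DMSO level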
- Measurement conditions: S. cerevisiae MEP2-GFP strain, 3 h, at 10 µM, active compounds read high
Activity calls are given as the source filed them.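 Rule for the calls: active = GFP response above 150% of the DMSO control; inconclusive = Fewer than 70 cells counted for a yeast strain; inactive = the rest.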
Please respond with reported GFP response vs DMSO for every item in the list.

Sample Cc1ccc(NC(=S)NCC23C=CC(O2)C2C(=O)N(c4ccc(C)cc4)C(=O)C23)cc1 (stereo not drawn) ; GFP response vs DMSO observed: 104% (inactive)

Looking up O=C(O)Cc1ccc2ccc3ccccc3c2c1 , I see its GFP response vs DMSO listed as 102% (inactive)

Per the records, this compound ( O=C(NC(=S)NNC(=O)c1ccc(Cl)cc1Cl)c1cccnc1 ) has GFP response vs DMSO equal to 101% (inactive)

The recorded GFP response vs DMSO for Cc1ccc(/C=c2\sc3nc(-c4cccs4)nn3c2=O)o1 is 163% (inactive)

The reported value for COc1ccc(-c2nn(-c3ccccc3)cc2C(=O)NC(=S)NNC(=O)c2ccncc2)cc1 in terms of GFP response vs DMSO is 101% (inactive)

// recorded GFP response vs DMSO for COc1cc(/C=C2\C(=O)ON=C2c2ccc(Cl)cc2)ccc1O : 102% (inactive)

Summary for this compound, COc1cc(/C=C2\N=C(c3ccccc3)OC2=O)ccc1OCc1c(C)no[n+]1[O-] : GFP response vs DMSO is 104% (inactive)

GFP response vs DMSO for Cc1ccccc1Oc1ncnc2oc(-c3ccccc3)cc12 is 102% (inactive)

Entry COc1ccccc1CNc1nc(S(=O)(=O)c2ccccc2)c(Cl)s1 — recorded GFP response vs DMSO = 95.2% (inactive)

Sure, the documented GFP response vs DMSO for CS(=O)(=O)N1N=C(c2ccco2)CC1c1ccc(Br)cc1 (stereo not drawn) is 100% (inactive)

Entry under test: Cc1cc(NCCCN2CCOCC2)n2ncc(-c3ccccc3)c2n1 . Its GFP response vs DMSO was 102% (inactive)

# GFP response vs DMSO (compound: Cc1cc(NCCCn2ccnc2)n2ncc(-c3ccccc3)c2n1 ) is 99% (inactive)

Entry under test: Cc1ccc(-c2csc3ncn(Cc4ccc(C(=O)O)cc4)c(=O)c23)cc1C . Its GFP response vs DMSO was 105% (inactive)
